- assayed-system: human OX2R (Homo sapiens)
- Sequence (O43614 whole entry): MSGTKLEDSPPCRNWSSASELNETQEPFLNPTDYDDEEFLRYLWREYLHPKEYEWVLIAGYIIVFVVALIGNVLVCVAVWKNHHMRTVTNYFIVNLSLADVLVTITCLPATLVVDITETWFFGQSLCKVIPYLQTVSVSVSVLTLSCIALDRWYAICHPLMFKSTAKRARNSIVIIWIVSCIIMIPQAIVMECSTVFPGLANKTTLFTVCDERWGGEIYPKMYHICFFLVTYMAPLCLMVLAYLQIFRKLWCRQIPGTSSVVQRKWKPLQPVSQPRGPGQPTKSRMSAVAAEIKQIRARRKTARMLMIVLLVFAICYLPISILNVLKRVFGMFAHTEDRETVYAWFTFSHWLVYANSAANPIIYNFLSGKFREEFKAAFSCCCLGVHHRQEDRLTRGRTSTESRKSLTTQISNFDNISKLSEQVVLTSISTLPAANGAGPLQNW
- measurement-protocol: IPOne (IP-One) orexin receptor agonist assay in CHO cells expressing human OX2R
- test-context: CHO cells expressing human OX2R; IP-One detection; 2 hours incubation; four parameter logistic fit; read-out: OX2R Potency, EC50
pEC50: −log10 of the molar value.
endpoint-label: pEC50

Worked examples, 6 compounds total:
Cn1nnnc1N1CC[C@H](NS(C)(=O)=O)[C@@H]1CO[C@H]1CC[C@@H](c2ccccc2)CC1 [Example 31] ... 8.59
Cn1c(N2CC[C@H](NS(C)(=O)=O)[C@@H]2CO[C@H]2CC[C@@H](c3ccccc3)CC2)cccc1=O [Example 116] ... 6.41
Cn1cnc(N2CC[C@H](NS(C)(=O)=O)[C@@H]2CO[C@H]2CC[C@@H](c3ccccc3)CC2)n1 [Example 14] ... 5.43
CS(=O)(=O)N[C@H]1CCN(c2cc(O)c(Cl)cn2)[C@H]1CO[C@H]1CC[C@@H](c2cccc(F)c2)CC1 [Example 97] ... 9.22
CS(=O)(=O)N[C@H]1CCN(c2nc(O)cs2)[C@H]1CO[C@H]1CC[C@@H](c2ccccc2)CC1 [Example 107] ... 6.17
CS(=O)(=O)N[C@H]1CCN(c2ccns2)[C@H]1CO[C@H]1CC[C@@H](c2ccccc2)CC1 [Example 18] ... 5.54

[I] CS(=O)(=O)N[C@H]1CCN(c2cc(O)c(F)cn2)[C@H]1CO[C@H]1CC[C@@H](c2cccc(F)c2)CC1 [Example 99]
[II] CS(=O)(=O)N[C@H]1CCN(c2nccc(O)c2F)[C@H]1CO[C@H]1CC[C@@H](c2ccccc2)CC1 [Example 72]
QUERY: Higher pEC50 between I and II ? Indicate your choice by writing its label.
RESULT: I
(I: 9.57, II: 8.92)

[a] CS(=O)(=O)N[C@H]1CCN(c2ncc(F)cc2F)[C@H]1CO[C@H]1CC[C@@H](c2ccccc2)CC1 [Example 63]
[b] CS(=O)(=O)N[C@H]1CCN(c2nccc(O)c2F)[C@H]1CO[C@H]1CC[C@@H](c2ccccc2)CC1 [Example 117]
[c] Cn1cccc(N2CC[C@H](NS(C)(=O)=O)[C@@H]2CO[C@H]2CC[C@@H](c3ccccc3)CC2)c1=O [Example 111]
QUERY: Please list these in order of increasing pEC50. Thank you! // format: requested-order list of labels
RESULT: a, c, b
